assay.system: BCRP (Homo sapiens)
Sequence (Q9UNQ0 whole entry): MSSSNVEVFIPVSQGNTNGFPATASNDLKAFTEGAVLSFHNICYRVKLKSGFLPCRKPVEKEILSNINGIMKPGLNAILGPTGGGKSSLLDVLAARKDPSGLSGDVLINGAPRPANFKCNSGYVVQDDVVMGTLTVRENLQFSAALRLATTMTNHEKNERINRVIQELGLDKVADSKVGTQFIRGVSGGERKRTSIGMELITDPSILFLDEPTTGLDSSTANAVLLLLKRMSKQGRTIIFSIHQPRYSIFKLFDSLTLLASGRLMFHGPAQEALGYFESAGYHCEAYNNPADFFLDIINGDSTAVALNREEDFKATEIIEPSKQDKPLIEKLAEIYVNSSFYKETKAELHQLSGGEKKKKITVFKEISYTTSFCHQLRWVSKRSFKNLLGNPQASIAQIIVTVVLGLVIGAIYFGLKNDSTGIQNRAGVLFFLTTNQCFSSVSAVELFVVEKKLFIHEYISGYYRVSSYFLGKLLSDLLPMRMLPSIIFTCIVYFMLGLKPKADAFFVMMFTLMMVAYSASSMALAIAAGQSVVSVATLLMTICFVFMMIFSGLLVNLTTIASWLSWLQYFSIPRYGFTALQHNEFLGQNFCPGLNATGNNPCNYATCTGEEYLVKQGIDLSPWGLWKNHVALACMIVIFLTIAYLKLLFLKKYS
assay.method.text: BCRP inhibition, basic static model
pKi: −log10 of the molar value.

{"columns": ["smiles.notation", "pKi"],
 "data": [
  ["C=CC(=O)Nc1cc(Nc2nccc(-c3cn(C)c4ccccc34)n2)c(OC)cc1N(C)CCN(C)C", 5.70]
]}

###

assay.system: OATP1B1 (Homo sapiens, UniProt Q9Y6L6)
Sequence (Q9Y6L6 whole entry): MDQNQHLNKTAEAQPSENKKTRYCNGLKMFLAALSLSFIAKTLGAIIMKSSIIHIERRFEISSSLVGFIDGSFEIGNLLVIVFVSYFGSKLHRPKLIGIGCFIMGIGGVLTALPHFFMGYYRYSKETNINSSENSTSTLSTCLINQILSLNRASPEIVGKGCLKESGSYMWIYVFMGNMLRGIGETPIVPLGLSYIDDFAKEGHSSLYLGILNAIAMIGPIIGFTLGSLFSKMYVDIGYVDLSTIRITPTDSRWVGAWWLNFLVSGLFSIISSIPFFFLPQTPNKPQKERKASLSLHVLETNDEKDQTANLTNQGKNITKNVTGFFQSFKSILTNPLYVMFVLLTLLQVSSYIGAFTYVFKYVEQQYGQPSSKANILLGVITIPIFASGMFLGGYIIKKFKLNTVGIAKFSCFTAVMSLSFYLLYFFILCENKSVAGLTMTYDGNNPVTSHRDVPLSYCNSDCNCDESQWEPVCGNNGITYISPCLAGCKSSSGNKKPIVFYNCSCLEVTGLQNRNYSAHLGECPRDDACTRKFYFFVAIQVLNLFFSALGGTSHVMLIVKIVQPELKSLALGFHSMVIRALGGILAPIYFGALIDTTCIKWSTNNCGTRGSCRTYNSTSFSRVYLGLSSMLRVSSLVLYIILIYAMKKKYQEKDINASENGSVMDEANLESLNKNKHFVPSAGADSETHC
assay.method.text: OATP1B1 inhibition, basic static model
Assay type: in vitro ADME
condition.description: human
pKi: −log10 of the molar value.

{"columns": ["smiles.notation", "pKi"],
 "data": [
  ["C=CC(=O)Nc1cc(Nc2nccc(-c3cn(C)c4ccccc34)n2)c(OC)cc1N(C)CCN(C)C", 4.28]
]}

###

System: CYP3A4/5
assay.method.text: CYP3A4/5 reversible
Type: in vitro ADME
condition.description: human
pKi: −log10 of the molar value.
assay.readout: pKi

{"columns": ["smiles.notation", "meas.value"],
 "data": [
  ["C=CC(=O)Nc1cc(Nc2nccc(-c3cn(C)c4ccccc34)n2)c(OC)cc1N(C)CCN(C)C", 5.59]
]}

###

assay.system: CYP2C8 (Homo sapiens)
Sequence (P10632 whole entry): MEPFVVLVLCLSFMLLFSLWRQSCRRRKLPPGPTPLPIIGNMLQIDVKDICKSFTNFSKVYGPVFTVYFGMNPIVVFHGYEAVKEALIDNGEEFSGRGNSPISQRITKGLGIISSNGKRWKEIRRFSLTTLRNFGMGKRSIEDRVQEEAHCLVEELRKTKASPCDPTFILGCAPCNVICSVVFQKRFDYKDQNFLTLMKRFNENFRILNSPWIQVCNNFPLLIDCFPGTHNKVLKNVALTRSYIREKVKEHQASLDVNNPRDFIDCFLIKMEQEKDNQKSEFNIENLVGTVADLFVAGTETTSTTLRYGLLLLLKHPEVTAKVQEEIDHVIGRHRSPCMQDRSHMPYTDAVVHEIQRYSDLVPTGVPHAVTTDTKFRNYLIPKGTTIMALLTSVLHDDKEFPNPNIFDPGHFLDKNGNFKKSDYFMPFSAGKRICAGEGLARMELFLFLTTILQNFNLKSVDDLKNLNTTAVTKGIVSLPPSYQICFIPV

{"columns": ["smiles.notation", "Ki, µM"],
 "data": [
  ["C=CC(=O)Nc1cc(Nc2nccc(-c3cn(C)c4ccccc34)n2)c(OC)cc1N(C)CCN(C)C", 11.4]
]}

###

Type: in vivo
condition.description: human, plasma, oral, 80 mg

{"columns": ["smiles.notation", "scale.unit", "AUC"],
 "data": [
  ["C=CC(=O)Nc1cc(Nc2nccc(-c3cn(C)c4ccccc34)n2)c(OC)cc1N(C)CCN(C)C", "µM·h", 11.5]
]}

###

assay.method.text: Fraction unbound in microsomal incubation
Type: in vitro ADME
condition.description: microsomes (microsomal incubation)

{"columns": ["molecule", "fraction unbound"],
 "data": [
  ["C=CC(=O)Nc1cc(Nc2nccc(-c3cn(C)c4ccccc34)n2)c(OC)cc1N(C)CCN(C)C [Osimertinib]", 0.0261]
]}
